Biological target: MspA-PBA (phenylboronic acid modified hetero-octameric (N90C)1(M2)7 MspA) (Mycolicibacterium smegmatis, UniProt A0QR29, D117C/D118N/D120N/D145R/D161R/E166K)
Construct: H6 (hexa-histidine) (C); 3-(maleimide) phenylboronic acid (MPBA) adduct on the thiol of Cys90; made in house; host or cells: E. coli BL21 (DE3) pLysS, co-expression from pETDuet-1
Format: binding, Mycobacterium smegmatis
Settings: NMP 300 μM in cis, +200 mV, N=3
quantity-kind: S.D. (noise amplitude of blockage level) (pA)
Write the value in pA as a bare number.

These solved cases illustrate the format of a correct answer.
compound	S.D. (noise amplitude of blockage level) (pA)
Nc1ccn([C@@H]2O[C@H](COP(=O)(O)O)[C@@H](O)[C@H]2O)c(=O)n1 [CMP, Cytidine-5′-monophosphate]	3.23
Nc1nc2c(ncn2[C@@H]2O[C@H](COP(=O)(O)O)[C@@H](O)[C@H]2O)c(=O)[nH]1 [GMP, guanosine-5′-monophosphate]	3.02
O=c1ccn([C@@H]2O[C@H](COP(=O)(O)O)[C@@H](O)[C@H]2O)c(=O)[nH]1 [UMP, uridine-5′-monophosphate]	2.14
Nc1ncnc2c1ncn2[C@@H]1O[C@H](COP(=O)(O)O)[C@@H](O)[C@H]1O [AMP, adenosine-5′-monophosphate]	3.14

# context switch: different compound, same S.D. (noise amplitude of blockage level)
Determine from records and report S.D. (noise amplitude of blockage level) for O=c1[nH]cc([C@@H]2O[C@H](COP(=O)(O)O)[C@@H](O)[C@H]2O)c(=O)[nH]1 [Ψ, Pseudouridine-5′-monophosphate]
2.40
